For each record, write down the corresponding apparent KD of MS2 coat protein.
# Tested on: MS2 coat protein
# assay method text: apparent KD of MS2 coat protein; designed switch direction (-1 OFF switch, 1 ON switch): 1; higher = weaker reporter binding
# condition set: Eterna round: R98; input ligand: none
API: value field is a number in nM; no unit string.

Ask | Using the record for CCGGAAACGGGUAGCUGACAUGAGGAUCACCCAUGUGAUACACAGGAUAUGGAUCCUAAUUGGAUCCAGAAGGGUGUCAGCUAC [Mat - Same State NG 3 - JL Mod - D84] , state its measured apparent KD of MS2 coat protein.
Reply | 1270

Ask | Using the record for AAAACAUGAGGAUCACCCAUGUAAGAAUAAUUAAUUAUAAGUGAGGAUAUAUAAAUUAUAAAAUUGUAGAAGGCACUGGGUAUC [JR_SSNG3_Sub083] , state its measured apparent KD of MS2 coat protein.
Reply | 71

Ask | Using the record for GCUGUCGCAUGAGGAUAUGGUCUGCUUUGCAGACCAGAAGGCAUGUCGAUAGACAUGAGGAUCACCCAUGUAGUAAAGACAGCA [Mat - Same State NG 1 - JL Mod - D49] , state its measured apparent KD of MS2 coat protein.
Reply | 306

Ask | Using the record for CUAAUAUAGUGAGGAUAUGCACAGGAUCACCGUGUAGAAGGCAUCAGGUAGAAGGUGCAGAGGAUCACCCUGUAAGGAUAUACC [pwkr2 ssNG1 DX.4] , state its measured apparent KD of MS2 coat protein.
Reply | 69.4

Ask | Using the record for CUGCAAAUCUUAGGAUAUGCUCAGGAAUACUGAGCAGAAGGAAGAUAUACCUGAGGAUCACCCAGGUAAAACUGGAGCAGAAUA [Same State NG1 - A3C, U17G Submission 8G U68A, U7A] , state its measured apparent KD of MS2 coat protein.
Reply | 26.6

Ask | Using the record for ACUAGAAACGGGCAAUAACACAUGAGGAUCACCCAUGUGACACAGGAUAUAACCAGAUCAGAAAGUUAGAAGGGUGAGCCCGCA [Edraed Mod 1 - Jieux - Same State NG3] , state its measured apparent KD of MS2 coat protein.
Reply | 23.7

Ask | Using the record for UCGUGUUUAACAGGAUAUCCUCAACGACACAUGAGGAUCACCCAUGUUCGGAGCCAAAUGGCUUAGGAGAAGGGUUAGAAACAA [Isceenvere] , state its measured apparent KD of MS2 coat protein.
Reply | 701

Ask | Using the record for GACCGUCCCACAGGAUAUAGAAGGGCGUCCGUUCUAGAAGGGUGAUCAGGACCAAAAGGUCACAUGAGGAUCACCCAUGUAGGU [Usorti] , state its measured apparent KD of MS2 coat protein.
Reply | 36.6

---

# System: MS2 coat protein
# assay method text: apparent KD of MS2 coat protein; designed switch direction (-1 OFF switch, 1 ON switch): -1; higher = weaker reporter binding
# condition set: input ligand: FMN 200 uM
# binarize apparent KD of MS2 coat protein: threshold 50 nM inclusive, high side True, low side False

Ask | Assess whether reported apparent KD of MS2 coat protein for CCCUUGUGAGGAUAUAGUAGUUGCACAUCGAUAGAGUAACUCUAGAAGGCACAUGAGGAUCACCCAUGUACGAA [Eternabot (L1) Solution 56] (Eterna round: R97, puzzle: Exclusion 4) sits at 50 nM or higher.
Reply | True

Ask | Assess whether reported apparent KD of MS2 coat protein for AGUAAGCUAGGAUAUGCUUUGGGAAAGCAUUCCUUCGAUAAACUUGAGGAUCACCCAAGUAGAAGGAGCUUACA [salish99_ex2_r4_004] (Eterna round: R97, puzzle: Exclusion 2) sits at 50 nM or higher.
Reply | False

Ask | Assess whether reported apparent KD of MS2 coat protein for GCUAGAGCAGGAUAUUCAAAACCUCACAUGAGGAUCACCCAUGUGGCCGAAAGGCCGGGAGGAGAAGGGCUCUAGC [Mat - Exclusion 5 - Eli mod - D84] (Eterna round: R96, puzzle: Exclusion 5) sits at 50 nM or higher.
Reply | False

Ask | Assess whether reported apparent KD of MS2 coat protein for GUCACAUGGACAUAGGAUCACAUGAGGAUCACCCAUGUGACUAACAAGCUUUUUGCUCGUCUUAUGUCCAUGUGAAU [Stov1/15-A3] (Eterna round: R97, puzzle: Sensor, turn-off variant 1) sits at 50 nM or higher.
Reply | False

Ask | Assess whether reported apparent KD of MS2 coat protein for CAAGUGUUAGGAUAUACCAGUUAAAUGCAGCUGCCGUCGGAGUAGAAGGGACAUGAGGAUCACCCAUGUCGGGA [Eternabot (L1) Solution 28] (Eterna round: R97, puzzle: Exclusion 4) sits at 50 nM or higher.
Reply | False

Ask | Assess whether reported apparent KD of MS2 coat protein for GCAAGCUUUAUCAAUAAGAACAUGAGGAUCACCCAUGUAUAAGGUAUUACUUUUGGGCUCUUUAGUGCUCGUCUUAU [JR_STOV1_Sub034] (Eterna round: R97, puzzle: Sensor, turn-off variant 1) sits at 50 nM or higher.
Reply | False

Ask | Assess whether reported apparent KD of MS2 coat protein for UACAGUCAUCCUUGUUGUUACAUGAGGAUCACCCAUGUUAGUAUAAUUAAGUUAUGUAAGUUUGUUGUUCGUUUUAU [JR_STOV1_v2_Sub076] (Eterna round: R97, puzzle: Sensor, turn-off variant 1) sits at 50 nM or higher.
Reply | True

---

# Test system: MS2 coat protein
# assay method text: apparent KD of MS2 coat protein; higher = weaker reporter binding
# condition set: Eterna round: R107; input ligand: arginine 13.2 mM
For each record, write down the corresponding apparent KD of MS2 coat protein.
API: value field is a number in nM; no unit string.

Ask | Using the record for GUCAGAACAUAUCAUGUUCUGGCACUGGAAGGAGCGAGCGAGAGCUCAGGUAGGUCGCCAGAACAUGAGGAUCACCCAUGUAAUA [(A)''-(M)'-(A)'(Arg1)-(Arg2)-(M1)-(M2)_Design11] , state its measured apparent KD of MS2 coat protein.
Reply | 50.5

Ask | Using the record for UUGUUGUACGGAAGGAGCGUGUAAGAUUAAGAACAUGAGGAUCACCCAUGUUUUAAGGGAACACAGGUAGGUCGCCGUGUGGUGG [11.Q] , state its measured apparent KD of MS2 coat protein.
Reply | 14

Ask | Using the record for AUAACAUGAGGAUCACCCAUGUAUUGGUUACGAGGACCGGUACGGCCGCCACUCGUAUUAUAGUGGUAUUUUGUUUAUAUGAUAA [JR_Nu_TrtptoA_Sub019] , state its measured apparent KD of MS2 coat protein.
Reply | 14.8

Ask | Using the record for UUUAUGGAGCUUUUAUUUACGAUUUCUGAUACCAGUGUUUCAUUUCACCCUUGGCAGCAGUGACAUGAGGAUCACCCAUGUAAUA [JR_Nu_SSTheophyA_Sub020] , state its measured apparent KD of MS2 coat protein.
Reply | 28.1

Ask | Using the record for UAAUCAGUGCCGGUUCUCGGAUCCUCAUGUCGAGGACCGGUACGGCCGCCACUCGAAACAUGAGGAUCACCCAUGUAAUAAUAAU [#09 Exclusion Tryptophan A] , state its measured apparent KD of MS2 coat protein.
Reply | 44.2

Ask | Using the record for GCAUCCUAGUCGGCCGCCACUGGUAUGAACACCUUCACCCGUGUGCACAUGAGGAUCACCCAUGUUAGGACCGGGACUAGGAUGC [SSTryp B #20] , state its measured apparent KD of MS2 coat protein.
Reply | 10

Ask | Using the record for CAUAUAUAUAGAAGGAGCGUCGAAAAUGGGUAAACAUGAGGAUCACCCAUGUAAAGGGAACGACAGGUAGGUCGCUAUAUAUAUG [AstromonsSSArgB#3] , state its measured apparent KD of MS2 coat protein.
Reply | 99.1

Ask | Using the record for GGAGUAGGAAACUAUUCCAAUCCUCGUGAACGAGGACCGGUACGGCCGCCACUCGAUAAAUAAAUACAUGAGGAUCACCCAUGUA [Ex Tryptophan A 22] , state its measured apparent KD of MS2 coat protein.
Reply | 20

Ask | Using the record for ACACAUGAGGAUCACCCAUGUGCGCUGGAAGGAGCGCAGAAUCAUGCAGGUAGGUCGCCAGUGCCCUUUGAUAAAGGGAAAAGAG [Reor] , state its measured apparent KD of MS2 coat protein.
Reply | 52.2

Ask | Using the record for ACGACGCAUACAGAUACCAGUAGCCGAGAAACAUGAGGAUCACCCAUGUCGAGCGACAACUGCCCUUGGCAGCUGUAUGCGUCAG [SSTheo B #12] , state its measured apparent KD of MS2 coat protein.
Reply | 8.02

Ask | Using the record for CCUAUGCAGUCGGCCGCCACUGAACAUGAGGAUCACCCAUGUAAUUAAAAUUAAGGUCCUAAAAUCAGGACCGGGACUGUAUAGG [Ex Tryptophan B 6] , state its measured apparent KD of MS2 coat protein.
Reply | 37.6

Ask | Using the record for GGUGAUCCGUAUCACCGGAUCAUCGGUGAUACCAGCAUCGAAAGAUGCCCUUGGCAGCACCAACAUGAGGAUCACCCAUGUAAUA [(M)'-(T)'-(M)''-(T1)-(T2)-(M1)-(M2)_Design6] , state its measured apparent KD of MS2 coat protein.
Reply | 70.3

Ask | Using the record for GCUGGGUGCGCAAGGACCUGGCGUUGCGAUACCAGCACGGUAACGUGCCCUUGGCAGCGCACAUGAGGAUCACCCAUGUGGUGUU [#1 Exclusion - Theophylline A Attempt #19 (HarryS)] , state its measured apparent KD of MS2 coat protein.
Reply | 62.8

Ask | Using the record for `UGUAUGUGAUCUGAUACCAGAGUGACGCGAAAGCGAUAACCUGAGGAUCACCCUGGUAAACUCCCUUGGCAGCAGAUCGCAUACU` , state its measured apparent KD of MS2 coat protein.
Reply | 53.7

Ask | Using the record for GCCAAAAUACCCGAUACCAGUAUUAAUAGCACAACCUCACACAUGAGGAUCACCCAUGUAUACCCUUGGCAGCGGCCUAACAUAA [theeternabot_exclusion_MS2_Theo_B_49] , state its measured apparent KD of MS2 coat protein.
Reply | 30.5

Ask | Using the record for AGAGUCAGACAAAAGUCUGGCUCAGCCGAAGGAGCGUCCGAAAGGACAGGUAGGUCGCGGUUACCUGAGGAUCACCCGGGUUCCU [ArgAS 25 #OpenEnded #AlternativeMS2] , state its measured apparent KD of MS2 coat protein.
Reply | 56.7

Ask | Using the record for GGUACAUGAGGAUCACCCAUGUGUCAUGAUACCAGACAUGAAAAUGUCCCUUGGCAGCAUGCCAGACGGCCGCGUUUAGCGGCCG [Oresin] , state its measured apparent KD of MS2 coat protein.
Reply | 18.6
